From: patent US20200123233A1

- study system: Rabies virus glycoprotein G, ERA strain (attenuated vaccine strain, ATCC VR332) (Rabies virus, ERA strain (genotype 1 lyssavirus)) (UniProt P03524)
- Sequence (P03524 20-524 limits assumed): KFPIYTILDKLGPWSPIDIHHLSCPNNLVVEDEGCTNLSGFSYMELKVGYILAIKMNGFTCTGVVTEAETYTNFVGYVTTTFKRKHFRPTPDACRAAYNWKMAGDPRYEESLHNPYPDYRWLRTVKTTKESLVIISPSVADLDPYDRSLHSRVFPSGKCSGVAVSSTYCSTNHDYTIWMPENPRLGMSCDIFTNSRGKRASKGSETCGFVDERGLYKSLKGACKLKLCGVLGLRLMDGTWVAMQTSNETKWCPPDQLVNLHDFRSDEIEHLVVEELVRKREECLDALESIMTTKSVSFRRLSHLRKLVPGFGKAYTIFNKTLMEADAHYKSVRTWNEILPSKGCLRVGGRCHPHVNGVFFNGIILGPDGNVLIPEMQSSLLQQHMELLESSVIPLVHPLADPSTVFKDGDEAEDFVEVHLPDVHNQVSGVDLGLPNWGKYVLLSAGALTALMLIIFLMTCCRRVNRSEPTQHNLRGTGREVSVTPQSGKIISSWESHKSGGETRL
- protocol summary: cell-based or functional assay
recorded endpoint: ERA neutralizing antibody titer (RFFIT): nM IC50

Problem: So what does the record say about ERA neutralizing antibody titer (RFFIT): nM IC50 for LG191E4 (VHH) VHH: EVQLVESGGGLVQAGGSLRLSCAASGPTFSADTMGWFRQAPGKEREFVATIPWSGGIAYYSDSVKGRFTMSRDNAKNTVDLQMNSLKPEDTALYYCAGSSRIYIYSDSLSERSYDYWGQGTQVTVSS ?
Result: > 5960 nM

Problem: Same for LG212G2 (VHH) VHH: EVQLVESGGGLVQPGGSLRLSCAASGFTFGSHDMSWVRQAPGKGSEWVSGIKSGGGSTLYADSVKGRFAISRDNAKNTLYLQMNSLKPEDTAVYYCATDLYGSTWYPGEDRGTQVTVSS
Result: > 7300 nM

Problem: Input LG214F8 (VHH) VHH: EVQLVESGGDLVQAGGSLRLSCVASGSTYSINAMGWYRQAPGKLRELVAAFRTGGSTDYADSVKGRFTISRDTAKNTVYLQMNSLKPEDTAVYYCNAEVIYYPYDYWGQGTQVTVSS
Result: 94 nM

Problem: Now consider LG213D7 (VHH) VHH: EVQLVESGGGLVQAGGSLRLSCTVSGDTFDNSAAGWYRATSETQRELVARIRSSGSTNYADSVKGRFTVSRDNAKNTVYLQMNSLKPEDTAVYYCNVVSYGEYFWGKGTLVTVSS and answer again.
Result: 251 nM
